- test name: gradient 5% acetonitrile 3 min, to 50% in 2 min, to 85% in 15 min, held 3 min, 100 µL/min
- condition context: column: Zorbax Extend-C18 2.1 x 50 mm; eluents: water / acetonitrile, 0.1% formic acid
Response field label takes t when RP-LC retention time is strictly below 900 s and f in all other cases.

O=C(c1ccc2ncnc(N3CCCCC3)c2c1)N1CCCCC1 : t

Does the reported RP-LC retention time of the following compound sit strictly below 900 s? Cc1ccccc1N1CC(C(=O)N(C)C)CC1=O (stereo not given)
t

Dear reviewer, please state whether CCC(=O)N1CCc2cc(N3CC(C(=O)Nc4ccc(C)cc4)CC3=O)ccc21 (stereo not given) has RP-LC retention time strictly beneath 900 s.
t

Just wondering, is RP-LC retention time of Cc1ccccc1CNC(=O)C1(C)CCCN(C(=O)Nc2ccccc2C(F)(F)F)C1 (stereo not given) below 900 s?
f

* * *

# RP-LC retention time per entry
- test name: gradient 5% acetonitrile 3 min, to 50% in 2 min, to 85% in 15 min, held 3 min, 100 µL/min
- condition context: column: Zorbax Extend-C18 2.1 x 50 mm; eluents: water / acetonitrile, 0.1% formic acid
Quick note: give the figure in s, leave out the unit.

Worked cases, answers included:
O=C(NCc1ccc2c(c1)OCO2)C1CCN(C(=O)c2ccc(Cl)cc2)CC1 : 766
O=C(O)c1cccc2c1CCN2S(=O)(=O)c1ccccc1 : 793
CCOC(=O)C(CC)Sc1ccc(NC(=O)c2cccs2)nn1 (centres undefined) : 908
Cc1ccc(-c2nnc(Cc3nc(-c4ccc(Br)cc4)no3)o2)cc1C : 1230
CN(CCc1noc(-c2ccc(C(=O)N3CCN(c4ccccn4)CC3)cc2)n1)C(=O)c1ccccc1 : 625
CC1Cc2ccccc2N1C(=O)c1ccc(=O)n(CCC(=O)NC2CCCCC2)n1 (centres undefined) : 793
COc1ccccc1N1CCN(CCCNS(=O)(=O)c2ccc3c(c2)CCCC(=O)N3)CC1 : 616
COc1ccc(-n2nc(C(=O)N3CCC(C(N)=O)CC3)c(=O)cc2OC)cc1OC : 588

The reported value for CCOc1ccc(NC(=O)CSC2=C(C#N)C(c3cccs3)CC(=O)N2)cc1 (centres undefined) in terms of RP-LC retention time is 844

Value of RP-LC retention time reported for the molecule `CN(C)C(=O)c1csc(N2CCN(c3ccccc3F)CC2)n1` is 884

For this molecule ( `C=CCn1ccn(-c2ccc(F)c(Cl)c2)c(=O)c1=O` ), measured RP-LC retention time is 652

Sample CCC(C)CC(=O)N1CCCN(C2=NS(=O)(=O)C(c3ccccc3)=C2C)CC1 (centres undefined) ; RP-LC retention time observed: 828

# RP-LC retention time of `CCCn1c(=O)c(C)nc2cc(-c3noc(-c4cc(OC)cc(OC)c4)n3)ccc21` = 1090

Sample `Cc1nc2c(sc3nc(-c4ccccc4)ccc32)c(=O)n1CC(=O)Nc1ccc(F)cc1` ; RP-LC retention time observed: 1040

Short answer for `Cc1ccc(-c2nnc(-c3ccc(Cl)c(S(=O)(=O)N4CCCCC4)c3)o2)cc1` : RP-LC retention time was 1250

Noted for `COCc1nncn1C1CN(C(=O)Cc2cc(OC)cc(OC)c2)C1` : its RP-LC retention time reads 620

The molecule listed as `CCOc1cccc(-c2noc(CN3C(=O)COc4ccc(C(C)(C)C)cc43)n2)c1` shows RP-LC retention time equal to 1380

Recorded RP-LC retention time (molecule CCn1nnc2cc(-c3noc(C4CC(=O)N(c5ccc(C)c(C)c5)C4)n3)ccc21 (centres undefined) ): 953

The recorded RP-LC retention time for `O=C(c1cccc(Cl)c1)N1CCN(c2nc(CN3CCOCC3)cs2)CC1` is 623
